Data credit: paper PMC4134960

- MEASUREMENT_TARGET: murine Abcg2 (Mus musculus)
- Sequence (Q7TMS5 whole entry): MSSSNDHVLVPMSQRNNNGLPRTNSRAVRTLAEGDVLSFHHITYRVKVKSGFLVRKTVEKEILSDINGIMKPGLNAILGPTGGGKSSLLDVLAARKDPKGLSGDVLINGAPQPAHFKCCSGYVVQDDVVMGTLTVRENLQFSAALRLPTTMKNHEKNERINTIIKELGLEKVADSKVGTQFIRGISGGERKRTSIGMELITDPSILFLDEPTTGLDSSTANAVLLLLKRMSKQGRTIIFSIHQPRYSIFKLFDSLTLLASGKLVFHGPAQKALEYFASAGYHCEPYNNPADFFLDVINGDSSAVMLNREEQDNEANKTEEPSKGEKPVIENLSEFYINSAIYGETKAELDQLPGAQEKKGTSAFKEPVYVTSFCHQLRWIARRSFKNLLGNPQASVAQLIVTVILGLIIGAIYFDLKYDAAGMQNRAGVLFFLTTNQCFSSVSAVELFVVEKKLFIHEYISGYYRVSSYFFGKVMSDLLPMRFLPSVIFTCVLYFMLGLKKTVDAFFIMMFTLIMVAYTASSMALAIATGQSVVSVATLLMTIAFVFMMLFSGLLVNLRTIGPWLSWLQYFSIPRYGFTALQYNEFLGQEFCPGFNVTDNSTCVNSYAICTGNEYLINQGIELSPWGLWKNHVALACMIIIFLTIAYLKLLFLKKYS
- PROCEDURE_TEXT: Transepithelial transport in monolayers of MDCKII cells over-expressing Abcg2
- Assay type: in vitro ADME
- CONDITIONS_USED: MDCKII over-expressing Abcg2, after 4h, 5 μM (compound 8: 1 μM)
ENDPOINT_LABEL: A to B transport (percentage of drug appearing in the opposite compartment) (%)

COMPOUND	UNIT_NAME	REPORTED_RESULT
CN(C)C(=O)c1cccc(-c2cc(OC(=O)NC3CCCCC3)ccc2O)c1 [Compound 2]	%	6.95
CC(=O)c1cccc(-c2cc(OC(=O)NC3CCCCC3)ccc2O)c1 [Compound 3]	%	24.5
CNC(=O)c1cccc(-c2cc(OC(=O)NC3CCCCC3)ccc2O)c1 [Compound 1]	%	6.99
COc1ccc(OC(=O)NC2CCCCC2)cc1-c1cccc(C(N)=O)c1 [Compound 7]	%	7.29
Cc1ccc(OC(=O)NC2CCCCC2)cc1-c1cccc(C(N)=O)c1 [Compound 8]	%	5.59
NC(=O)c1cccc(-c2cc(OC(=O)NC3CCCCC3)ccc2O)c1 [URB937]	%	1.68
